- assay.system: T1, 4H629-AA
- T1 chain: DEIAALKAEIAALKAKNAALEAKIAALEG
- assay.procedure: two-hybrid library CCmax;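 note: natural log of median RNA to DNA barcode read ratio; higher means stronger binding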
- condition.summary: mean of both orientations
reported.metric: interaction score

a = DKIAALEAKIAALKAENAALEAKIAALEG [4H2389-AA]
b = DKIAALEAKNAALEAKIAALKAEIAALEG [4H2473-AA]
In terms of reported interaction score, does a or b have the smaller number? Write down the label of the entry you select.
b

1 = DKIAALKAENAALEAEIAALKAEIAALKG [4H2698-AA]
2 = DEIAALKAEIAALEAKNAALKAEIAALKG [4H570-AA]
3 = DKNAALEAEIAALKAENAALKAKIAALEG [4H3165-AA]
# rank by interaction score, ascending (min first) // ordering of labels required in reply
1, 3, 2
(1: -1.54, 3: -0.975, 2: -0.598)

a = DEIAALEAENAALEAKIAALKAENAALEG [4H171-AA]
b = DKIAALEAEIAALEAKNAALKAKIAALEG [4H2109-AA]
c = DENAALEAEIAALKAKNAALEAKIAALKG [4H1142-AA]
Arrange the 3 binders from largest to smallest interaction score. Hello, could you send the labels back in the order asked? Thank you.
b, c, a

I = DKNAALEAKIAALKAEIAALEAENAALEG [4H3395-AA]
II = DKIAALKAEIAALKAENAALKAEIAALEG [4H2649-AA]
III = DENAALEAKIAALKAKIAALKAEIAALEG [4H1385-AA]
Give the ascending ranking of the items by reported interaction score. To answer, write out the labels according to the requested order.
I, III, II
(I: -1.64, III: -1.12, II: -0.681)
